Tested on: Plasmodium falciparum Sir2 (PF13_0152, Sir2A)
Assay: Plasmodium falciparum Sir2A binding compounds – biochemical, small-molecule microarray, 635 nm fluorescence, primary screen (AID 1098);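 also: score merges spot fluorescence intensity with its signal-to-noise ratio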
Conditions: fluorescence 635 nm, higher = more signal
# composite z-score per record follows

compound | composite z-score
NC(=O)NCC#Cc1ccc2c(c1)[C@]1(C(=O)N2)[C@H](c2ccc(O)cc2)N2[C@H](c3ccccc3)[C@H](c3ccccc3)OC(=O)[C@H]2[C@@H]1C(N)=O | 0.855
C=CC[C@]1(C(=O)NCC(O)CO)N=C(c2ccc(OCCCO)cc2)O[C@H]1c1ccccc1N=[N+]=[N-] (stereo partly drawn) | 0.939
O=C(N1CCOCC1)[C@@]1(CCS(=O)(=O)c2ccccc2)COC(c2ccc(OCCCO)cc2)=N1 | 0.495
C[C@]12C(=O)N(CCCO)[C@@H]3C(=O)N(c4ccc(Cl)cc4)CC=CC31O[C@@H]1/C=C\CCCOC(=O)C12 (stereo partly drawn) | 1.83
Cc1ccccc1C(O)C1C=CC2C(=O)N(Cc3ccccc3)C(=O)C2N1n1cnnc1 (stereo not drawn) | 0.996
COCC1=C([C@H](O)CCc2ccccc2)[C@H](CO)[C@@H]2C(=O)N(C)C(=O)[C@@H]2C1 | -0.129
COC(=O)[C@]1(Cc2ccccc2CN=[N+]=[N-])N=C(c2ccc(OCCCO)cc2)O[C@@H]1c1ccccc1 | 1.15
COc1ccccc1CN1C(=O)c2ccccc2[C@@]2(Cc3ccccc3N(C3CC3)C2=O)[C@@H]1c1ccc(CO)cc1 | 0.76

---

# z-score per record follows
Experiment: viability profiling in MM1S myeloma cells – cell-based, resazurin fluorescence, basal, 24 h, PK04 Diversity Set, profiling panel (AID 1174);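 also: MM1S multiple myeloma cell line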
Conditions: higher = more signal, called active from +8 up or from −8 down
Activity calls are given as the source filed them.

compound | z-score
CC(=O)NCCCC[C@@H]1NC(=O)[C@@H]2C[C@H](C(=O)NCCCC[N+](C)(C)C)[C@H](c3cccc(OCCO)c3)N2C1=O | -1.56 (inactive)
O=c1c2ccc(Br)cc2nc(-c2ccccc2)n1Cc1cccc(O)c1 | -1.1 (inactive)
CCCCC(=C=CC[C@H](O)c1cccc(OCCO)c1)C[C@H](O)COCc1ccccc1 | 0.202 (inactive)
COC(=O)C(CC#Cc1ccc2c(c1)[C@]1(C(=O)N2)[C@H](c2ccc(O)cc2)N2[C@H](c3ccccc3)[C@H](c3ccccc3)OC(=O)[C@H]2[C@@H]1C(=O)O)C(=O)OC | -0.134 (inactive)
Cc1ccc(S[C@]2(C(=O)NCCN3CCOCC3)CC(=O)N(C3Cc4ccccc4C3)[C@@H]2c2ccc(CO)cc2)cc1 | -0.209 (inactive)
[N-]=[N+]=NCc1ccccc1[C@H]1OC(c2ccc(OCCCO)cc2)=N[C@@]1(Cc1ccccc1N=[N+]=[N-])C(=O)N1CCCCC1 | -2.42 (inactive)
COC(=O)C(CC#Cc1ccc2c(c1)[C@]1(C(=O)N2)[C@H](c2ccccc2OCCO)N2[C@H](c3ccccc3)[C@H](c3ccccc3)OC(=O)[C@H]2[C@@H]1C(=O)Nc1nc2ccccc2s1)C(=O)OC | 0.699 (inactive)
CN1C(=O)C2C=CC(C(O)C3CCCCC3)N(N(c3ccccc3)c3ccccc3)C2C1=O (stereo not given) | -1.54 (inactive)
Cc1ccc(S[C@]2(C(=O)NCc3ccccc3)CC(=O)N(C3Cc4ccccc4C3)[C@@H]2c2ccc(CO)cc2I)cc1 | -2.61 (inactive)
CC(C)N1CC=CC23O[C@@H]4C=CCOC(=O)[C@@H]4[C@H]2C(=O)N(CCCCCCO)[C@@H]3C1=O (stereo not given in full) | -0.581 (inactive)
O=C1N(CCS(=O)(=O)c2ccccc2)c2ccccc2[C@H]2OC(c3ccc(OCCCO)cc3)=N[C@@]12CCS(=O)(=O)c1ccccc1 | 0.685 (inactive)
CC(C)=CCCC(C)=CC(O)C1C=CC2C(=O)N(c3ccccc3)C(=O)C2N1Nc1ccc([N+](=O)[O-])cc1 (stereo not given) | -0.753 (inactive)
CC(C)c1ccc(NN2C(C(O)c3cccs3)C=CC3C(=O)N(c4ccccc4)C(=O)C32)cc1 (stereo not given) | -1.73 (inactive)
CCCC=C(CCC)[C@@H](NS(=O)(=O)c1ccccc1)c1ccc(C(F)(F)F)cc1 | -2.56 (inactive)
CCCC=C(CCC)[C@@H](NS(=O)(=O)c1cccc2cccnc12)c1ccc(C(=O)OC)cc1 | 0.058 (inactive)

---

Test system: XIP peptide (Xip251-270) binding
Assay: XIP fragment 251-270 binding compounds – biochemical, small-molecule microarray, fluorescence 635/667 nm, 0.1 µg/mL protein, primary screen (AID 1182)
Conditions: fluorescent protein binding, 635 nm, higher = more signal, called active from +8 up or from −8 down
Mark 1 (yes) for reported composite z-score of 0.7 or greater; mark 0 (no) for anything smaller.

compound | label.class
COCCOC(=O)N1C(=O)[C@@]2(c3cc(C#Cc4ccc(OC)cc4)ccc31)[C@H](C(N)=O)[C@H]1C(=O)O[C@H](c3ccccc3)[C@H](c3ccccc3)N1[C@@H]2c1ccc(OCCO)cc1 | 0 (no)
COC(=O)[C@@]1(Cc2ccc(OC)cc2)[C@H]2c3cc(C(=O)N(C)C)n(CCF)c3C[C@H]2CN1C(=O)c1ccccc1 | 0 (no)
CC(C)C[C@H]1NC(=O)[C@H](C)NC(=O)[C@@]23C(=O)N[C@@H](Cc4ccccc4)C2[C@H](C)[C@@]2(C)O[C@H]2C3/C=C/C/C=C\CNC1=O (some centres not stated) | 1 (yes)
COC(=O)c1c(CC[C@@H](CO)NC(=O)N[C@@H](C)Cn2cc(C3(O)CCCC3)nn2)oc(C(C)=O)c1C(=O)OC | 0 (no)
CC(C)C[C@@H]1NC(=O)[C@@H]2C[C@H](C(=O)NCc3ccc(F)cc3)[C@H](c3ccc(O)cc3)N2C1=O | 1 (yes)
COC(=O)[C@@]1(Cc2ccccc2)[C@H]2c3cc(C(=O)N(C)C)n(Cc4ccccn4)c3C[C@H]2CN1C(=O)c1ccccc1 | 1 (yes)
CCCCC(CC)C(O)C1C=CC2C(=O)NC(=O)C2N1Nc1ccccn1 (configuration not stated) | 0 (no)
O=C(Nc1cc(Br)ccc1C(=O)NCc1cccc(O)c1)c1ccccc1 | 1 (yes)
C/C=C/[C@@H](CCn1cc([C@H](O)c2ccccc2)nn1)[Si](C)(C)c1ccc(OC)cc1 | 1 (yes)
C=C(COC)C(=O)CC[C@H](OC(=O)c1ccccc1-c1ccccc1C(=O)O)c1ccc(OCCO)cc1 | 0 (no)
Cc1ccc(S[C@]2(C(=O)NCCN3CCOCC3)CC(=O)N(C3Cc4ccccc4C3)[C@@H]2c2ccc(CO)cc2)cc1 | 0 (no)
C[C@@]1([C@@H](NC(=O)c2cccs2)c2ccc(-c3ccccc3)cc2)C[C@H]1C1CCCCC1 | 0 (no)
CN1C(=O)C2C=CC(C(O)COCc3ccccc3)N(Nc3ccccc3)C2C1=O (configuration not stated) | 0 (no)
COc1cccc(C[C@H]2C[C@@H](CO[Si](C(C)C)(C(C)C)C(C)C)N3C(=O)[C@]4(C(C)=O)O[C@]23[C@H]2C(=O)N(C)C(=O)[C@H]24)c1 | 0 (no)
COC(=O)[C@@]1(Cc2ccc(F)cc2)[C@H]2c3cc(C(=O)N(C)C)n(Cc4ccc(C)c(F)c4F)c3C[C@H]2CN1C(=O)c1ccccc1 | 0 (no)
COCCOC(=O)N1C(=O)[C@@]2(c3cc(C#Cc4ccc(OC)cc4)ccc31)[C@H](C(=O)N1CCc3cc(OC)c(OC)cc3C1)[C@H]1C(=O)O[C@H](c3ccccc3)[C@H](c3ccccc3)N1[C@@H]2c1ccc(O)cc1 | 1 (yes)
CCCCCCCCCCC(O)C1C=CC2C(=O)NC(=O)C2N1Nc1ccccn1 (configuration not stated) | 0 (no)
Cc1ccc(-c2cccc(=O)o2)cc1 | 0 (no)
COC(=O)[C@@]1(Cc2ccc(OC)cc2)[C@H]2c3cc(C(=O)N4CCCC4)n(CCc4ccc(O)c(OC)c4)c3C[C@H]2CN1C(=O)c1ccccc1 | 1 (yes)
COc1ccc(C#Cc2ccc3c(c2)[C@]2(C(=O)N3)[C@H](C(N)=O)[C@H]3C(=O)O[C@H](c4ccccc4)[C@H](c4ccccc4)N3[C@@H]2c2ccc(O)cc2)cc1 | 1 (yes)
COCCCNC(=O)[C@]1(Cc2ccccc2CN=[N+]=[N-])N=C(c2ccc(OCCCO)cc2)O[C@@H]1c1ccccc1CN=[N+]=[N-] | 0 (no)
C=CCN1C(=O)[C@@]2(O[C@@H](CCn3cc([C@H](O)c4ccccc4)nn3)[C@H]([Si](C)(C)c3ccc(OC)cc3)[C@H]2C)c2cc(NC(=O)c3ccc(OC)cc3)ccc21 | 0 (no)
C=CCNC(=O)[C@H]1[C@@H]2C(=O)O[C@@H](c3ccccc3)[C@@H](c3ccccc3)N2[C@@H](c2ccc(OCCO)cc2)[C@]12C(=O)N(C(=O)OCCOC)c1ccc(C#CC3=CCCCC3)cc12 | 0 (no)
CC1C=C(CCCO)C=C(C(=O)OCCS(C)(=O)=O)C(C(=O)OCCS(C)(=O)=O)=CN1Cc1cccc(OC(F)(F)F)c1 (configuration not stated) | 0 (no)
CCN(CC)c1ccc(N2CC=CC34O[C@@H]5/C=C\CCCOC(=O)C5[C@H]3C(=O)N(CCCCCCO)[C@@H]4C2=O)cc1 (some centres not stated) | 1 (yes)
COCCOC(=O)N1C(=O)[C@@]2(c3cc(C#CCNC(N)=O)ccc31)[C@H](C(N)=O)[C@H]1C(=O)O[C@H](c3ccccc3)[C@H](c3ccccc3)N1[C@@H]2c1ccc(OCCO)cc1 | 0 (no)
C[C@H]1NC(=O)C([C@@H](C)OCc2ccccc2)NC(=O)[C@@]23C(=O)N[C@@H](Cc4ccccc4)C2[C@H](C)[C@@]2(C)O[C@H]2C3/C=C/CC/C=C/CNC1=O (some centres not stated) | 0 (no)

Cited source: PubChem BioAssay
